system: HCT-8 host cells (Hs18S); settings: primary screening at 10 uM, treated vs control
For each record, write down the corresponding Hs18S ΔCT.
Reply: number alone, nothing else.

(Q) Give the reported value of Hs18S ΔCT for this record: `CC1(C)C=Cc2c(c3c(c4c(=O)c(-c5ccc(O)c(O)c5)coc24)OC(C)(C)CC3)O1`
(A) -0.07

(Q) Give the reported value of Hs18S ΔCT for this record: C[C@]12CC[C@H](O)CC1=CC[C@@H]1[C@@H]2CC[C@]2(C)C(=O)CC[C@@H]12 [DEHYDROEPIANDROSTERONE]
(A) -0.03

(Q) Give the reported value of Hs18S ΔCT for this record: C[C@@H]1[C@H](O)[C@@H](C)/C=C/C=C/CC/C=C/C=C/C=C/C=C/C(O[C@H]2O[C@H](C)[C@@H](O)[C@H](N)[C@@H]2O)CC2O[C@](O)(CC(O)C(O)CCC(O)CC(O)CC(O)CC(=O)O[C@H]1C)CC(O)C2C(=O)O (stereo partly drawn)
(A) 1.05

(Q) Give the reported value of Hs18S ΔCT for this record: C[C@@H]1C(=O)O[C@H]2[C@H]1CC[C@@]1(C)C=CC(=O)[C@@]3(C)O[C@@]213 [EPOXY (4,5alpha)-4,5-DIHYDROSANTONIN]
(A) -0.03

(Q) Give the reported value of Hs18S ΔCT for this record: C[C@@H]1C(=O)O[C@H]2C[C@@]34[C@H]5C[C@@H](C(C)(C)C)[C@]36[C@@H](OC(=O)[C@@H]6O)O[C@@]4(C(=O)O5)[C@]21O [GINKGOLIDE A]
(A) 0.10

(Q) Give the reported value of Hs18S ΔCT for this record: CCCCCCCCCCCCCCCCC(C(=O)O)C(O)(CC(=O)O)C(=O)O (stereo not drawn)
(A) 0.30
